Hey, just so you know, these numbers are from PubChem BioAssay AID248.

Tested on: L1210 leukemia ip in BDF1 mice, survival T/C
Experiment: NCI In Vivo Anticancer Drug Screen. Data for tumor model L1210 Leukemia (intraperitoneal) in B6D2F1 (BDF1) mice
Details: endpoint: mean survival time; dose: 200.0 mg/kg/injection; schedule: Q04DX003 (ip); vehicle: Klucel (hydroxypropylcellulose) (HPC); higher = longer survival
Toxic doses and inconclusive results are not listed.
Answer each item with its documented T/C.

compound	T/C
CCc1[nH]c(=S)nc(-c2ccccc2)c1-c1ccc([N+](=O)[O-])cc1O	100 % of control
O=C(O)CSC(=S)c1ccccc1	105 % of control
NC(=O)C1CCCC12NC(=O)NC2=O (configuration not stated)	103 % of control
CC(=O)C1CC(CC(=O)O)C1(C)C (configuration not stated)	101 % of control
CCCCCCCCCCCCCCCCc1ccc(CCCC(=O)O)cc1	92 % of control
CCCNC(=O)OC/C=C\CC(Cl)(Cl)Cl	94 % of control

Now, please, on to the next compound.
Lookup: Quick one: T/C for CCCCCCCCCCCCCCCCCCNC(=O)N(CC)c1ccccc1 ?
Found: 101 % of control

====

Tested on: L1210 leukemia ip in BDF1 mice, survival T/C
Experiment: NCI In Vivo Anticancer Drug Screen. Data for tumor model L1210 Leukemia (intraperitoneal) in B6D2F1 (BDF1) mice
Conditions: endpoint: mean survival time; dose: 100.0 mg/kg/injection; schedule: Q04DX003 (ip); vehicle: water; higher = longer survival
Protocol: The antitumor activity of compounds was measured in mice bearing transplantable tumors. Survival or tumor size were measured and the results are expressed as the measurement made in the treated group (T) divided by the measurement made in the vehicle treated control group (C). The tumor model used in this assay is L1210 Leukemia (intraperitoneal) in B6D2F1 (BDF1) mice
Inconclusive results and toxic doses are left out.
measurement-name: T/C

Answered cases to consult:
compound	T/C
C=C/C=C\N(CC)CC	100 % of control
CCOC(=O)N=C=O	95 % of control
CC1=C(C)CC2C(=O)C=CC(=O)C2C1 (stereo not given)	89 % of control
N/C(=N\O)c1cccnc1	100 % of control

Lookup: Quick one: T/C for COc1ccc(/C=C/C(=O)c2ccccc2)cc1OC ?
Found: 93 % of control

====

Test system: L1210 leukemia ip in BDF1 mice, survival T/C
Test: NCI In Vivo Anticancer Drug Screen. Data for tumor model L1210 Leukemia (intraperitoneal) in B6D2F1 (BDF1) mice
Conditions: endpoint: mean survival time; dose: 200.0 mg/kg/injection; schedule: Q04DX003 (ip); vehicle: Klucel (hydroxypropylcellulose) (HPC); higher = longer survival
Toxic doses and inconclusive results are not listed.
measurement-name: T/C

Answered cases to consult:
compound	tested-system	measurement-name	result
CC(=O)NC1CC2c3ccccc3C1([N+](=O)[O-])c1ccccc12 (stereo not drawn)	L1210 leukemia ip in BDF1 mice, survival T/C	T/C	105 % of control
CCOC(=O)/C(C)=N\Nc1ccc(Cl)cc1	L1210 leukemia ip in BDF1 mice, survival T/C	T/C	98 % of control
O=C1NCCO1	L1210 leukemia ip in BDF1 mice, survival T/C	T/C	103 % of control

Could you tell me T/C for each of these compounds? They are listed below.
1. CC(=O)Oc1cc2c(cc1[N+](=O)[O-])OCO2
2. Cc1ccccc1C(Br)C1=CC(C)(C)c2ccccc2C1=O (stereo not drawn)
3. O=C(c1ccc(Cl)cc1)C1Cc2ccccc2C1=O (stereo not drawn)
4. O=C(CNc1ccccc1)c1ccc(O)c(C(=O)O)c1 (tested in a mixture with another compound)

Found:
1. 93 % of control
2. 92 % of control
3. 101 % of control
4. 90 % of control

Could you tell me T/C for each of these compounds? They are listed below.
1. NC(=S)N/N=C1/c2ccccc2-c2cc(Br)ccc21
2. CC1(C)CN1C1=C(NC(=O)CCl)C(=O)c2ccccc2C1=O
3. COc1ccc(NC(=O)O/N=C2\CN(S(=O)(=O)c3ccc(C)cc3)CCc3ccccc32)cc1

Found:
1: 100 % of control; 2: 94 % of control; 3: 94 % of control
